tested on: RAW-Dual (murine macrophage reporter line); assay: NF-kB reporter (SEAP) activity fold change vs agonist alone; higher = enhanced NF-kB activity; conditions: modulator concentration 10 µM; agonist: MPLA […]
observationType: NF-kB reporter

molecule=Cc1ccc(C=Nc2ccc(-c3ccc(N=Cc4ccc(C)o4)c(C)c3)cc2C)o1 observationtype="NF-kB reporter" result=1.01
molecule=Cc1c(-c2ccccc2)oc2c(C(=O)OCCN3CCCCC3)cccc2c1=O.Cl observationtype="NF-kB reporter" result=0.977
molecule=O=C(CSc1nc[nH]n1)NC(c1ccccc1)c1ccccc1 observationtype="NF-kB reporter" result=1.01
molecule=O=[N+]([O-])c1ccc(CSc2nc3ccccc3[nH]2)cc1 observationtype="NF-kB reporter" result=1.01
molecule=NC(=O)c1ccccc1O observationtype="NF-kB reporter" result=0.978
molecule=CCC(=O)Nc1cccc(NC(=O)c2ccc(F)cc2)c1 observationtype="NF-kB reporter" result=0.977
molecule="CCOC(=O)C(CCc1ccccc1)NC(C)C(=O)N1Cc2ccccc2CC1C(=O)O.Cl (stereo not drawn)" observationtype="NF-kB reporter" result=0.977
molecule=COc1ccc(NC(=O)CN2C(=O)c3ccccc3C2=O)c([N+](=O)[O-])c1 observationtype="NF-kB reporter" result=0.989

----------
test system: RAW-Dual (murine macrophage reporter line); experiment: viability score (confluency relative to resting cells, overnight) (fraction); higher = more viable, active = viable (0.7 or more); conditions: modulator concentration 10 µM
observationType: viability score

itemsmiles=O=[N+]([O-])c1ccc(C=Nc2sc3c(c2-c2nc4ccccc4s2)CCCC3)cc1 recordednumber=1
itemsmiles=CCCCCCOc1ccc(OC(=O)c2ccc(OC)cc2)cc1 recordednumber=1.04
itemsmiles=Cc1c(F)cc(C(=O)NC2CC2)cc1-c1ccc(C(=O)NCC(C)(C)C)cn1 recordednumber=1
itemsmiles=CCCCc1oc2ccccc2c1C(=O)c1cc(I)c(OCCN(CC)CC)c(I)c1.Cl recordednumber=1

----------
tested on: RAW-Dual (murine macrophage reporter line); experiment: viability score (confluency relative to resting cells, overnight) (fraction); higher = more viable, active = viable (0.7 or more); details: modulator concentration 10 µM
observationType: viability score

compound=COC(=O)C1=C(C)N(Cc2ccccc2)C(=O)C1 measuredtarget="RAW-Dual (murine macrophage reporter line)" observationtype="viability score" recordednumber=0.623
compound="NC(=O)CCC(N)C(=O)O (configuration not stated)" measuredtarget="RAW-Dual (murine macrophage reporter line)" observationtype="viability score" recordednumber=0.997
compound=Cc1ccc(Sc2ccccc2N2CCNCC2)c(C)c1 measuredtarget="RAW-Dual (murine macrophage reporter line)" observationtype="viability score" recordednumber=0.622
compound="O=c1[nH]c(=O)n(C2CC(O)C(CO)O2)cc1F (configuration not stated)" measuredtarget="RAW-Dual (murine macrophage reporter line)" observationtype="viability score" recordednumber=1.04
compound=COc1cc(NC(=O)COc2ccc(C(C)C)c(C)c2)c(OC)cc1Cl measuredtarget="RAW-Dual (murine macrophage reporter line)" observationtype="viability score" recordednumber=0.96
compound=NC(=O)OCC(COC(N)=O)c1ccccc1 measuredtarget="RAW-Dual (murine macrophage reporter line)" observationtype="viability score" recordednumber=1
compound=N[C@@H](CC(=O)N1CCn2c(nnc2C(F)(F)F)C1)Cc1cc(F)c(F)cc1F measuredtarget="RAW-Dual (murine macrophage reporter line)" observationtype="viability score" recordednumber=0.998
compound=CC1(C)CC(=O)C2=C(C1)OC(N)=C(C#N)C21CCCC1 measuredtarget="RAW-Dual (murine macrophage reporter line)" observationtype="viability score" recordednumber=1
compound=CCCc1nc(C(C)(C)O)c(C(=O)OCc2oc(=O)oc2C)n1Cc1ccc(-c2ccccc2-c2nnn[nH]2)cc1 measuredtarget="RAW-Dual (murine macrophage reporter line)" observationtype="viability score" recordednumber=1
compound="O=C(NCC1(O)CCc2ccccc2C1)Nc1ccccc1C(F)(F)F (configuration not stated)" measuredtarget="RAW-Dual (murine macrophage reporter line)" observationtype="viability score" recordednumber=0.908
compound=CCn1c2ccccc2c2cc(CNCCc3ccc(OC)cc3)ccc21 measuredtarget="RAW-Dual (murine macrophage reporter line)" observationtype="viability score" recordednumber=0.0492
compound=Cc1ccc(C=NN=C(c2ccccc2)c2ccccc2)o1 measuredtarget="RAW-Dual (murine macrophage reporter line)" observationtype="viability score" recordednumber=1.02
compound=Cc1ccc(CSCCNC(=O)CN(c2cccc(C)c2)S(C)(=O)=O)cc1 measuredtarget="RAW-Dual (murine macrophage reporter line)" observationtype="viability score" recordednumber=1
compound=O=C(Nc1ccc(Br)cc1)c1cccc(S(=O)(=O)NC2CCCCC2)c1 measuredtarget="RAW-Dual (murine macrophage reporter line)" observationtype="viability score" recordednumber=0.983
compound=O=C(CCC(=O)Nc1ccccc1)NN=Cc1ccc(Cl)cc1 measuredtarget="RAW-Dual (murine macrophage reporter line)" observationtype="viability score" recordednumber=1
compound=CCOC(=O)N1CCN(C(=O)CSc2nnc(-c3cccc(Cl)c3)o2)CC1 measuredtarget="RAW-Dual (murine macrophage reporter line)" observationtype="viability score" recordednumber=0.95
compound="NS(=O)(=O)c1ccc2c(c1)C1C=CCC1C(C(=O)O)N2 (configuration not stated)" measuredtarget="RAW-Dual (murine macrophage reporter line)" observationtype="viability score" recordednumber=0.997
compound=C[C@H]1O[C@H]1P(=O)(O)O.NC(CO)(CO)CO measuredtarget="RAW-Dual (murine macrophage reporter line)" observationtype="viability score" recordednumber=0.994
compound=Fc1ccc(Oc2nc(Nc3cccc(Cl)c3)nc(N3CCOCC3)n2)cc1 measuredtarget="RAW-Dual (murine macrophage reporter line)" observationtype="viability score" recordednumber=0.84
compound=CCS(=O)(=O)N1CC(CC#N)(n2cc(-c3ncnc4[nH]ccc34)cn2)C1 measuredtarget="RAW-Dual (murine macrophage reporter line)" observationtype="viability score" recordednumber=0.506
compound=COC(=O)C1=C(C)NC(C)=C(C(=O)OC)C1c1ccc(-c2ccc(Cl)cc2Cl)o1 measuredtarget="RAW-Dual (murine macrophage reporter line)" observationtype="viability score" recordednumber=1.02
compound=CCN(CC)Cc1cc(Nc2ccnc3cc(Cl)ccc23)ccc1O.Cl.Cl.O.O measuredtarget="RAW-Dual (murine macrophage reporter line)" observationtype="viability score" recordednumber=0.931
compound=O=C(Cn1c(=O)oc2ccccc21)N1Cc2cncnc2C1 measuredtarget="RAW-Dual (murine macrophage reporter line)" observationtype="viability score" recordednumber=0.998
compound=CC[C@H](Nc1ncnc2[nH]cnc12)c1nc2cccc(F)c2c(=O)n1-c1ccccc1 measuredtarget="RAW-Dual (murine macrophage reporter line)" observationtype="viability score" recordednumber=0.964
compound=Cc1ccc(OCCOc2ncnc3ccccc23)c(Cl)c1 measuredtarget="RAW-Dual (murine macrophage reporter line)" observationtype="viability score" recordednumber=1
compound="COc1ccccc1OCC(O)CN1CCN(CC(=O)Nc2c(C)cccc2C)CC1.Cl.Cl (configuration not stated)" measuredtarget="RAW-Dual (murine macrophage reporter line)" observationtype="viability score" recordednumber=0.991
compound=N#C[C@@H]1CCCN1C(=O)CNC12CC3CC(CC(O)(C3)C1)C2 measuredtarget="RAW-Dual (murine macrophage reporter line)" observationtype="viability score" recordednumber=0.993
compound=OC1(c2ccc(Cl)c(C(F)(F)F)c2)CCN(CCCC(c2ccc(F)cc2)c2ccc(F)cc2)CC1 measuredtarget="RAW-Dual (murine macrophage reporter line)" observationtype="viability score" recordednumber=0.0235
compound=CC(C)(C)C(=O)NCc1cccnc1-c1cccnc1 measuredtarget="RAW-Dual (murine macrophage reporter line)" observationtype="viability score" recordednumber=1.01
compound="COCCCNC(=O)C1CCCN(c2ccc(Sc3ccc(Br)cc3)nn2)C1 (configuration not stated)" measuredtarget="RAW-Dual (murine macrophage reporter line)" observationtype="viability score" recordednumber=0.993
compound=O=C(O)CCCNc1c(C(=O)Nc2ccc(Cl)cc2)cc([N+](=O)[O-])cc1[N+](=O)[O-] measuredtarget="RAW-Dual (murine macrophage reporter line)" observationtype="viability score" recordednumber=0.511
compound=CC12CC3(C)CC(C)(C1)CC(C(=O)NC(C)(C)CO)(C2)C3 measuredtarget="RAW-Dual (murine macrophage reporter line)" observationtype="viability score" recordednumber=1

----------
NF-kB reporter reference
system: RAW-Dual (murine macrophage reporter line); experiment: NF-kB reporter (SEAP) activity fold change vs agonist alone; higher = enhanced NF-kB activity; details: modulator concentration 10 µM; agonist: CpG ODN 1826 0.5 ug/mL
observationType: NF-kB reporter

compound="COC(CNC(=O)c1cccc(Cl)c1)c1ccccc1C (centres undefined)" recordednumber=0.774
compound="CC(=O)Nc1ccc(CC(=O)N2C3C=CCC2CC3)cc1 (centres undefined)" recordednumber=1.32
compound=Cc1ccc(S(=O)(=O)O)cc1.NC(=O)c1cccc2cn(-c3ccc([C@@H]4CCCNC4)cc3)nc12 recordednumber=0.0798
compound="CNCCC(Oc1ccc(C(F)(F)F)cc1)c1ccccc1.Cl (centres undefined)" recordednumber=0.766

----------
test system: RAW-Dual (murine macrophage reporter line); assay: NF-kB reporter (SEAP) activity fold change vs agonist alone; higher = enhanced NF-kB activity; details: modulator concentration 10 µM; agonist: CpG ODN 1826 0.5 ug/mL
NF-kB reporter reference
observationType: NF-kB reporter

compound="CCN(CCO)CCCC(C)Nc1ccnc2cc(Cl)ccc12.O=S(=O)(O)O (centres undefined)" measuredtarget="RAW-Dual (murine macrophage reporter line)" result=0.877
compound="COc1ccc(Br)c(C(=O)N2CCOCC2CO)c1 (centres undefined)" measuredtarget="RAW-Dual (murine macrophage reporter line)" result=0.922
compound=CC1(C)CC(=O)C2=C(C1)OC(N)=C(C#N)C21CCCC1 measuredtarget="RAW-Dual (murine macrophage reporter line)" result=1.04
compound="CCC(C(=O)Nc1cc(Cl)cc(Cl)c1)c1ccccc1 (centres undefined)" measuredtarget="RAW-Dual (murine macrophage reporter line)" result=0.851
compound="Cc1cn2c(nc1=O)OC1C(O)C(CO)OC12 (centres undefined)" measuredtarget="RAW-Dual (murine macrophage reporter line)" result=1.01
compound=Oc1ccc(C=NCc2ccccc2)cc1 measuredtarget="RAW-Dual (murine macrophage reporter line)" result=1.11
compound="O=C(CN1CCN(c2ccccc2F)C1=O)N1CCCC(Oc2cnccn2)C1 (centres undefined)" measuredtarget="RAW-Dual (murine macrophage reporter line)" result=0.831
compound=COc1ccc2sc(C)[n+](CCCS(=O)(=O)[O-])c2c1 measuredtarget="RAW-Dual (murine macrophage reporter line)" result=0.951
compound=O=C(c1cccs1)c1nc2c(n1O)CCCCC2 measuredtarget="RAW-Dual (murine macrophage reporter line)" result=1.01
